Hello, the source for this data is patent US11008317B2, in case you need it.

Below, each of the molecules is paired with its reported IC50 value.
study.target: myeloperoxidase (Homo sapiens)
assay.details: MPO Chlorination Assay (APF Assay)
Type: biochemical
assay.setup: potency range class, read-out: APF Assay IC50 value

Record Nc1cc(C(CCNCCc2ccccc2)c2ccccc2)c2nn[nH]c2n1 (stereo not shown) , field IC50: 101 to 999 nM

----------
study.target: myeloperoxidase (Homo sapiens, UniProt P05164)
Sequence (P05164 49-745): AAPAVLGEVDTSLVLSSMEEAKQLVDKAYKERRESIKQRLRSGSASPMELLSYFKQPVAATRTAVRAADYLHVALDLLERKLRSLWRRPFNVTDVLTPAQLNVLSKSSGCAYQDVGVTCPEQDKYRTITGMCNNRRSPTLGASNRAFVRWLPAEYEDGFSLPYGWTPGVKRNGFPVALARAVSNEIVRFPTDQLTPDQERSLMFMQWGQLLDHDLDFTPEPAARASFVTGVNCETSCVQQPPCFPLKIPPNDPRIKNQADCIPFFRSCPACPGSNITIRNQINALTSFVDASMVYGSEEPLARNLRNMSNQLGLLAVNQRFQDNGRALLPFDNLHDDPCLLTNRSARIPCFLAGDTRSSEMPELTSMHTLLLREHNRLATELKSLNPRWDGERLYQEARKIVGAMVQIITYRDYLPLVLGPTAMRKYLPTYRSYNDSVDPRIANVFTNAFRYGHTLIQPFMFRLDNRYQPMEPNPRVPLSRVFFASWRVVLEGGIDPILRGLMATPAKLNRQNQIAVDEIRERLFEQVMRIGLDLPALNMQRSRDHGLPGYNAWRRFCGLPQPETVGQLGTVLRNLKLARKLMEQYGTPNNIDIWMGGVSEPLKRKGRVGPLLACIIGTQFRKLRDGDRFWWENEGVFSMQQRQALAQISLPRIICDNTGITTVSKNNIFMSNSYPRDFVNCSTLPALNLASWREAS
assay.details: MPO Peroxidation Assay (Amplex Red Assay)
Type: biochemical
assay.setup: potency range class, read-out: Amplex Red Assay IC50 value
quantity: IC50

{"molecule": "Nc1cc(C(CCNC2CC3CCC(C2)C3c2ccccc2)c2ccccc2)c2nn[nH]c2n1 (stereo not shown)", "study.target": "myeloperoxidase (Homo sapiens, UniProt P05164)", "data.value": "1000 to 10000 nM"}
{"molecule": "Nc1cc(C(CCN[C@@H]2CCc3ccc(F)cc32)c2ccccc2)c2nn[nH]c2n1 (stereo partly shown)", "study.target": "myeloperoxidase (Homo sapiens, UniProt P05164)", "data.value": "101 to 999 nM"}
{"molecule": "Nc1cc(C(CCN[C@@H]2CC[C@@H](c3ccccc3)C[C@@H]2CO)c2ccccc2)c2nn[nH]c2n1 (stereo partly shown)", "study.target": "myeloperoxidase (Homo sapiens, UniProt P05164)", "data.value": "101 to 999 nM"}
{"molecule": "Nc1cc([C@H](Cc2nc3c(-c4ccccc4Cl)cccc3[nH]2)c2ccccc2)c2nn[nH]c2n1", "study.target": "myeloperoxidase (Homo sapiens, UniProt P05164)", "data.value": "1000 to 10000 nM"}
{"molecule": "N#Cc1ccccc1C(CCN[C@H]1CC[C@H](c2ccccc2)CC1)c1cc(N)nc2[nH]nnc12 (stereo partly shown)", "study.target": "myeloperoxidase (Homo sapiens, UniProt P05164)", "data.value": "1000 to 10000 nM"}
{"molecule": "Nc1cc([C@H](CCNC23CCC(c4ccccc4)(CC2)C(O)C3)c2ccccc2)c2nn[nH]c2n1 (stereo partly shown) [Example 181]", "study.target": "myeloperoxidase (Homo sapiens, UniProt P05164)", "data.value": "1 to 100 nM"}

Would you kindly look at the next entry?
Record CN(CC[C@H](c1ccccc1)c1cc(N)nc2[nH]nnc12)[C@H]1CC[C@H](c2ccccc2)CC1 (stereo in doubt) , field IC50: 101 to 999 nM
